- testMethodNotes: RP, Waters ACQUITY UPLC HSS T3, 100 × 2.1 mm, 1.8 µm, 0.3 mL/min, estimated dead time 0.73 min; A: water + 0.1% formic acid, pH 3; B: methanol + 0.1% formic acid, pH 3; gradient (min/%B) 0/1 1/15 4/35 7/95 9/95 10/1 14/95
- reportedConditions: stereoisomer not certain
Response field label: string, one of condition met (LC retention time strictly below 8 min) or condition not met.

>>> classlabel("CSCCC(N)C(=O)O (configuration not stated)")
"condition met"
>>> classlabel("O=[N+]([O-])c1ccccc1O")
"condition not met"
>>> classlabel("CC(C)CC(N)C(=O)O (configuration not stated)")
"condition met"
>>> classlabel("NC(Cc1ccccc1)C(=O)O (configuration not stated)")
"condition met"
>>> classlabel("NC(Cc1c[nH]c2ccccc12)C(=O)O (configuration not stated)")
"condition met"
>>> classlabel("O=C1CC(C(=O)O)NC(=O)N1 [L-dihydroorotic acid]")
"condition met"
>>> classlabel("O=c1ccn(C2OC(CO)C(O)C2O)c(=O)[nH]1 (configuration not stated)")
"condition met"
>>> classlabel("CC12CCC3c4ccc(O)cc4CCC3C1CCC2O (configuration not stated)")
"condition not met"
>>> classlabel("O=C(O)CC(O)(CC(=O)O)C(=O)O [citric acid monohydrate]")
"condition not met"
>>> classlabel("Cc1cc2nc3c(=O)[nH]c(=O)nc-3n(CC(O)C(O)C(O)CO)c2cc1C (configuration not stated)")
"condition met"
>>> classlabel("CC(=O)C1CCC2C3CCC4=CC(=O)CCC4(C)C3CCC12C (configuration not stated)")
"condition not met"
>>> classlabel("CC(CCC(=O)NCC(=O)O)C1CCC2C3C(O)CC4CC(O)CCC4(C)C3CC(O)C12C (configuration not stated) [sodium glycocholate hydrate]")
"condition not met"
